biological target: T1, human urokinase-type plasminogen activator receptor (uPAR, CD87), cell-bound (human, UniProt Q03405 23-305); assay: FACS competition, FITC-tc-uPA on L929 cells expressing human uPAR, supernatant 1:2
T1 construct: whole, on cells; On B300.19 or L929 transfectants (full length cDNA), or native on U937 and PC-3 cells
T1 sequence (Q03405 23-305): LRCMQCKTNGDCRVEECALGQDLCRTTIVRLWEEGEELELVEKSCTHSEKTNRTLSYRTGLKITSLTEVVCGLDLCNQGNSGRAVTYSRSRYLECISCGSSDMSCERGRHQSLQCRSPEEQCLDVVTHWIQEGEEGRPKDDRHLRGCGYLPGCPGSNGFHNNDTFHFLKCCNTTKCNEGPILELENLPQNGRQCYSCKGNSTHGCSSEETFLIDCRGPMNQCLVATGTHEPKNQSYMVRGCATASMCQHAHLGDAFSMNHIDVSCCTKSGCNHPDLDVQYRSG
measurement-label: uPA/uPAR binding Inhibition %

[[record]]
binder = "anti-uPAR monoclonal antibody 1.61.1 (antibody, V domains shown) VH: EVQLVESGGGLVQPGGSLRLSCAASGFTFSSYDMHWVRQATGKGLEWVSAIGTAGDTYYPGSVKGRFTISRENAKNSLYLQMNSLRAGDTAVYYCAREGDYSNYFTRVRGVTYGMDVWGQGTTVTVSS VL: DIQMTQSPSSLSASVGDRVTITCRASQGISKYLAWFQQKPGKAPKSLIYGASSLQSGVPSKFSGSGSGTDFTLTISSLQPEDFATYYCQQYNSYPLTFGGGTKVEIK"
readout_value = "69%"

[[record]]
binder = "anti-uPAR monoclonal antibody 4.19.1 (antibody, V domains shown) VH: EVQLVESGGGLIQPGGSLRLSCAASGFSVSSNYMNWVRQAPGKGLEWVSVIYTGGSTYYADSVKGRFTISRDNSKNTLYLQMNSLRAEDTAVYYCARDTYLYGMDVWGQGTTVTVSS VL: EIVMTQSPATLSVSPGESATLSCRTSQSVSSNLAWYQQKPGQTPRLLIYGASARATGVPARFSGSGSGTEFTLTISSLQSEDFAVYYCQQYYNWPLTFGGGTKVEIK"
readout_value = "77%"

[[record]]
binder = "fully human monoclonal antibody 4.18.1 (ATCC Accession Number PTA-7476) (antibody, V domains shown) VH: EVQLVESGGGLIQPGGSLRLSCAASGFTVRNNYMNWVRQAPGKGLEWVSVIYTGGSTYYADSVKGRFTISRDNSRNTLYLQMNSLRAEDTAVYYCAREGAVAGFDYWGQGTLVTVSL VL: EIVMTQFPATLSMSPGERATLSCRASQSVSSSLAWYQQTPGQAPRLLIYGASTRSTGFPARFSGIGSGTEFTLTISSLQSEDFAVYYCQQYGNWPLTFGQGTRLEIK"
readout_value = "75%"

[[record]]
binder = "anti-uPAR monoclonal antibody 1.113.2 (antibody, V domains shown) VH: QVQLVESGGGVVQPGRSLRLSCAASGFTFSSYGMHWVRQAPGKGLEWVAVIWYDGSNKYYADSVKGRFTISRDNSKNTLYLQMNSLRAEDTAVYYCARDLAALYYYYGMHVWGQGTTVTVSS VL: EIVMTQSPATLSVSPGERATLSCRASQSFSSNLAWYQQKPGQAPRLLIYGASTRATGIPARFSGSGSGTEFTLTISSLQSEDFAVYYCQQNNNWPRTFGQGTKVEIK"
readout_value = "75%"

[[record]]
binder = "fully human monoclonal antibody 2.6.1 (ATCC Accession Number PTA-7475) (antibody, V domains shown, also called mAb 2.6.1) VH: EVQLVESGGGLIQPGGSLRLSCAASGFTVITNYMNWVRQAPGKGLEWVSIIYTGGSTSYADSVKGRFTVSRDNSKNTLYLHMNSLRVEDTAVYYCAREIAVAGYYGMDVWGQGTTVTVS VL: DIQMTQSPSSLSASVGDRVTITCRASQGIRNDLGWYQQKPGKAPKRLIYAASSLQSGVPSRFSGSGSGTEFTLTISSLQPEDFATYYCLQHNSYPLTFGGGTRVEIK"
readout_value = "80%"

[[record]]
binder = "anti-uPAR monoclonal antibody 3.8.3 (antibody, V domains shown) VH: EVQLVESGGGLVQPGGSLRLSCAASGFTFSSYWMSWVRQAPGKGLEWVANIKQHGSEKYYVDSVKGRFTISRDNAKNSLYLQMNSLRAEDTAVYYCAREEAYYYDNSGYYWYFDLWARGTLVTVSS VL: DIQMTQSPSSVSASIGDRVTITCRASQGISSWLAWYQQKPGKTPKLLIYAASSLQSGVPSRFSGSGSGTDFTLTISSLQPEDFATYYCQQADSFPWTFGQGTKVEIK"
readout_value = "70%"

[[record]]
binder = "anti-uPAR monoclonal antibody 1.41.1 (antibody, V domains shown) VH: QVQLVESGGGVVQPGRSLRLSCAAPGFTFSSYGMHWVRQAPGKGLEWVAVIWYDGSQKYYADSVKGRFTISRDNSKNTLYLQMNSLRAEDTAVYYCARGMTYYYYYGMDVWGQGTTVTVSS VL: EIVMTQSPAILSVSPGERATLSCRASQSVSSKLDWYQQKPGQAPRLLIYGASTRATGIPARFSGSGSGTEFTLTISSLQSEDFAVYYCQQYNNWPRTFGQGTKVEIK"
readout_value = "74%"

[[record]]
binder = "anti-uPAR monoclonal antibody 1.4.2 (antibody, V domains shown) VH: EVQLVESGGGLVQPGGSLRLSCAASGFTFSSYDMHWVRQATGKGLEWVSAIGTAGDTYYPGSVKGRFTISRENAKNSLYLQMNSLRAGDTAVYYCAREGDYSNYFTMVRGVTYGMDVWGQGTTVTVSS VL: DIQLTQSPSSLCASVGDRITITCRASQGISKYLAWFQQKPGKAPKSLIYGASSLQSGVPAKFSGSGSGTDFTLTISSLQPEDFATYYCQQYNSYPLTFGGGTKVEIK"
readout_value = "69%"


Source of measurements: patent US20080152587A1
